Tested on: M14
test_details: NCI tumour cell line growth inhibition, 48 h
The source made the active and inactive calls. Rule as the data show it: active = GI50 up to about 1.1 µM and inactive = higher.
Outcomes: label 1 = active, label 0 = inactive

>>> print(df.to_string())
                                   molecule    class
0  COc1cc(Cl)c(CC(=O)c2c[nH]c3ccccc23)cc1OC  label 0
1  COP(=O)(OC)C(N)Cc1c[nH]c2ccccc12 (stereo not drawn)  label 0
2  CCN(CC)CC1CCCCN1CC(=O)N1c2ccccc2NC(=O)c2ccccc21 (stereo not drawn)  label 0
3  COC1=C(C)C(=O)c2c(c(COC(N)=O)c3n2CC(OC(C)=O)C3OC(C)=O)C1=O (stereo not drawn)  label 1
4  CC(C)(C)NCCC(O)c1cc(C(F)(F)F)nc2c(C(F)(F)F)cccc12 (stereo not drawn)  label 0
5       Cc1cc(O)nc(CNC(=O)c2ccc3ccccc3c2)n1  label 0
6  CC(CO)C1=CC(C#CCOCc2ccccc2)N(C(=O)Oc2ccccc2)c2ccccc21 (stereo not drawn)  label 0
7  C[N+](C)(C)CC(=O)N/N=C(/C(=O)Nc1ccc(Br)cc1)C1C(=O)NC(=O)NC1=O  label 0

* * *

Tested on: SF-295
test_details: NCI tumour cell line growth inhibition, 48 h
The source made the active and inactive calls. No stated cut-off is given here; in the data, active = GI50 up to about 1.1 µM and inactive = higher.
property_measured: GI50

>>> print(df.to_string())
                                   compound  measured_on  observed_measurement
0  CC(C)(Cl)C(Br)CC/C(=C/CBr)CBr.CC(C)(Cl)C(Br)CC/C(=C\CBr)CBr (stereo unspecified)       SF-295    3.71 µM (inactive)
1  O=S(=O)(c1ccc(-c2nnc(-c3ccc(F)cc3)o2)cc1)c1ccc(-c2nnc(-c3ccc(F)cc3)o2)cc1       SF-295    55.3 µM (inactive)
2    CCc1n[nH]c(=O)n1/N=C/c1c(O)ccc2ccccc12       SF-295   > 100 µM (inactive)
3  CC/C=C\C/C=C\C/C=C\CCCCCCCC(=O)OC [METHYL LINOLENATE]       SF-295   > 100 µM (inactive)
4             CCc1n[nH]c(=O)n1N1C(=O)CCC1=O       SF-295   > 100 µM (inactive)
5  CC(=O)OC1CC2CCN3C(=O)c4cc5c(cc4[C@H](C1OC(C)=O)C23)OCO5 (stereo partly specified)       SF-295   > 100 µM (inactive)

* * *

Test system: HL-60
test_details: NCI tumour cell line growth inhibition, 48 h
Activity calls are given as the source filed them. No stated cut-off is given here; in the data, active = GI50 up to about 1.1 µM and inactive = higher.
Outcomes: active, inactive

In [3]: df
Out[3]:
                                   molecule     class
0        NC(=O)NC(=O)c1cccc(C(=O)NC(N)=O)n1  inactive
1  CC(CSc1nc2c(c(=N)n1-c1ccccc1)c(=S)n(-c1ccccc1)c(=S)n2-c1ccccc1)CN(C)C (stereo not given)    active
2              CN1C=Cc2nccc3cc4c(c1c23)OCO4  inactive
3  O=c1c2ncn(COCCCl)c2n(-c2ccccc2)c(=S)n1-c1ccccc1  inactive
4        CCCNC(=S)N/C=C1\C(=O)Nc2ccccc2C1=O  inactive

* * *

System: Malme-3M
test_details: NCI tumour cell line growth inhibition, 48 h
Active and inactive are the calls of the source. Cut-off read from the data, not from the text of the source: active = GI50 up to about 1.1 µM and inactive = higher.
Outcomes: active, inactive

>>> df
                                    compound     class
 0     Cc1nc2c(Br)cc(Br)cc2c(=O)n1-c1ccccc1N  inactive
 1  O=C(Nc1ccc(Cl)cc1)c1cc2c(cc1Cl)Sc1nccn1S2(=O)=O  inactive
 2  COc1ccc(NC(=O)C(=O)c2c(O)c3ccc(O)cc3oc2=O)c([N+](=O)[O-])c1  inactive
 3  COc1c(-c2ccccc2)oc2c(CP(=O)(OC)OC)cccc2c1=O  inactive
 4  COc1ccccc1N1C(=O)/C(=C\c2cc(OC)c(OC)c(OC)c2)SC1c1ccccc1 (configuration not stated)  inactive
 5  Cc1cc(C)c([O-])c(-[n+]2c(-c3ccccc3)cc(-c3ccccc3)cc2-c2ccccc2)c1  inactive
 6    CC(C)(C)OC(=O)c1ccc(NCc2cc(O)ccc2O)cc1  inactive
 7                    Nc1ncnc2c1ccn2C/C=C/CO  inactive
 8  O=C(C(=O)n1ncc(Cl)c(Cl)c1=O)n1ncc(Cl)c(Cl)c1=O  inactive
 9  O=C(O)c1c(Br)c(Br)c(Br)c(Br)c1C1c2ccc(O)cc2Oc2cc(O)ccc21  inactive
10  O=C1c2cc([N+](=O)[O-])sc2C(=O)c2c([N+](=O)[O-])csc21    active
11  Cc1nc(SCC(=O)Nc2ccc(Cl)cc2)c2sc(=S)n(-c3ccccc3)c2n1  inactive
12  C[N+](C)(CCNc1ccc(NCC[N+](C)(C)Cc2ccc([N+](=O)[O-])cc2)c2c1C(=O)c1ccccc1C2=O)Cc1ccc([N+](=O)[O-])cc1  inactive
13  CC(=O)Oc1ccc(/C=C/C(=O)O[C@H]2CCCC[C@@H]2OC(=O)/C=C/c2ccc(OC(C)=O)c(OC(C)=O)c2)cc1OC(C)=O  inactive
14   CC(=N\N=C\c1ccccn1)/C(C)=N/N=C/c1ccccn1  inactive
15  O=C1[C@@H]2C3c4ccccc4C([C@@H]2C(=O)N1c1ccccc1)S3(=O)=O  inactive
16  CCOC(=O)CCC(NC(=O)c1ccc(OCc2ccc3nc(OC)c(OC)nc3c2)cc1)C(=O)OCC (configuration not stated)  inactive
